Test system: LoVo
Experiment: SRB colorimetric assay of cell growth and viability, LoVo
Assay type: cell-based, human
Conditions: 48 hours exposure
Where a SMILES comes first, the peptide text is derived from it. Bridges are numbered along the chain shown (N, C = ends). [ ]: non-standard residue; d: D form. The star is where a group is joined. d(aIle) = CC[C@H](C)[C@@H](N)C(=O)O; d(aThr) = C[C@@H](O)[C@@H](N)C(=O)O; Hexanoyl(5-Me) = CC(C)CCCC(=O)*; Orn = NCCC[C@H](N)C(=O)O; Dhb = C/C=C(\N)C(=O)O
Each item that follows carries a reported GI50.
Respond with the bare value in µM.

GI50 for C/C=C1\NC(=O)[C@H](Cc2ccccc2)NC(=O)[C@@H](C(C)C)NC(=O)[C@@H]([C@@H](C)CC)NC(=O)[C@H](NC(=O)[C@H](NC(=O)[C@H](CCCN)NC(=O)[C@H]2CCCN2C(=O)[C@H](NC(=O)[C@H](CCCN)NC(=O)[C@@H](NC(=O)[C@H](NC(=O)CCCC(C)C)C(C)C)[C@@H](C)O)C(C)C)[C@@H](C)CC)[C@@H](C)OC(=O)[C@H](C(C)C)NC1=O [Compound 49, [Orn^11]-KF] ({Hexanoyl(5-Me)}-[dV]T[Orn][dV][dP][Orn][d(aIle)][d(aThr)][d(aIle)][dV]F[Dhb]V; ester 8-C) ? 1.47

GI50 for C/C=C1\NC(=O)[C@H](Cc2ccccc2)NC(=O)[C@@H](C(C)C)NC(=O)[C@@H]([C@@H](C)CC)NC(=O)[C@H](NC(=O)[C@H](NC(=O)[C@H](CCCN)NC(=O)[C@H]2CCCN2C(=O)[C@H](NC(=O)[C@H](CCC(N)=O)NC(=O)[C@@H](NC(=O)[C@H](NC(=O)CCCC(C)C)C(C)C)[C@@H](C)O)C(C)C)[C@@H](C)CC)[C@@H](C)OC(=O)[C@H](C(C)C)NC1=O [Compound 48, [Gln^11]-KF] ({Hexanoyl(5-Me)}-[dV]TQ[dV][dP][Orn][d(aIle)][d(aThr)][d(aIle)][dV]F[Dhb]V; ester 8-C) ? 5.17

* * *

Each item that follows carries a reported CC50.
System: LoVo-Dox
Assay: SRB colorimetric assay of cell growth and viability, LoVo-Dox
Assay type: cell-based, human
Settings: LOVO-DOX; 48 hours exposure; read-out: LC50 LOVO-DOX
Where a SMILES comes first, the peptide text is derived from it. Bridges are numbered along the chain shown (N, C = ends). [ ]: non-standard residue; d: D form. The star is where a group is joined. d(aIle) = CC[C@H](C)[C@@H](N)C(=O)O; d(aThr) = C[C@@H](O)[C@@H](N)C(=O)O; Hexanoyl(5-Me) = CC(C)CCCC(=O)*; Orn = NCCC[C@H](N)C(=O)O; Dhb = C/C=C(\N)C(=O)O

molecule	target.or.test.system	CC50
C/C=C1\NC(=O)[C@H](Cc2ccccc2)NC(=O)[C@@H](C(C)C)NC(=O)[C@@H]([C@@H](C)CC)NC(=O)[C@H](NC(=O)[C@H](NC(=O)[C@H](CCCNC(=O)CCCC[C@@H]2SC[C@@H]3NC(=O)N[C@@H]32)NC(=O)[C@H]2CCCN2C(=O)[C@H](NC(=O)[C@@H](NC(=O)[C@@H](NC(=O)[C@H](NC(=O)CCCC(C)C)C(C)C)[C@@H](C)O)C(C)C)C(C)C)[C@@H](C)CC)[C@@H](C)OC(=O)[C@H](C(C)C)NC1=O [Compound 99, [Orn(Biot)^8]-Kahalalide F]	LoVo-Dox	3.93 µM

Continue with the molecule presented below.
Request body: readout CC50, system LoVo-Dox, query C/C=C1\NC(=O)[C@H](Cc2ccccc2)NC(=O)[C@@H](C(C)C)NC(=O)[C@@H]([C@@H](C)CC)NC(=O)[C@H](NC(=O)[C@H](NC(=O)[C@H](CCCN)NC(=O)[C@H]2CCCN2C(=O)[C@H](NC(=O)[C@@H](NC(=O)CNC(=O)[C@H](NC(=O)CCCC(C)C)C(C)C)C(C)C)C(C)C)[C@@H](C)CC)[C@@H](C)OC(=O)[C@H](C(C)C)NC1=O [Compound 111, [Gly^12]-KF] ({Hexanoyl(5-Me)}-[dV]GV[dV][dP][Orn][d(aIle)][d(aThr)][d(aIle)][dV]F[Dhb]V; ester 8-C) . Return the value. 4.39 µM

* * *

Tested on: IGROV-ET
Assay: SRB colorimetric assay of cell growth and viability, IGROV-ET
Assay type: cell-based, human
Settings: 48 hours exposure
Where a SMILES comes first, the peptide text is derived from it. Bridges are numbered along the chain shown (N, C = ends). [ ]: non-standard residue; d: D form. The star is where a group is joined. d(aIle) = CC[C@H](C)[C@@H](N)C(=O)O; d(aThr) = C[C@@H](O)[C@@H](N)C(=O)O; Myristoyl = CCCCCCCCCCCCCC(=O)*; Orn = NCCC[C@H](N)C(=O)O; Dhb = C/C=C(\N)C(=O)O
GI50 under 400 nM gets YES, anything at or over 400 nM gets NO.

molecule	target.or.test.system	assigned.class
C/C=C1\NC(=O)[C@H](Cc2ccccc2)NC(=O)[C@@H](C(C)C)NC(=O)[C@@H]([C@@H](C)CC)NC(=O)[C@H](NC(=O)[C@H](NC(=O)[C@H](CCCN)NC(=O)[C@H]2CCCN2C(=O)[C@H](NC(=O)CCCCCCCCCCCCC)C(C)C)[C@@H](C)CC)[C@@H](C)OC(=O)[C@H](C(C)C)NC1=O [Compound 32] (Myristoyl-[dV][dP][Orn][d(aIle)][d(aThr)][d(aIle)][dV]F[Dhb]V; ester 5-C)	IGROV-ET	NO

State whether 400 nM exceeds GI50 recorded for C/C=C1\NC(=O)[C@H](Cc2ccccc2)NC(=O)[C@@H](C(C)C)NC(=O)[C@@H]([C@@H](C)CC)NC(=O)[C@H](NC(=O)[C@H](NC(=O)[C@H](CCCCN)NC(=O)[C@H]2CCCN2C(=O)[C@H](NC(=O)[C@@H](NC(=O)[C@@H](NC(=O)[C@H](NC(=O)CC[C@@H](C)CC)C(C)C)[C@@H](C)O)C(C)C)C(C)C)[C@@H](C)CC)[C@@H](C)OC(=O)[C@H](C(C)C)NC1=O [Compound 30, [Lys^8, (4S)-MeHex^14]-KF] . YES

State whether 400 nM exceeds GI50 recorded for C/C=C1\NC(=O)[C@H](Cc2ccccc2)NC(=O)[C@@H](C(C)C)NC(=O)[C@@H]([C@@H](C)CC)NC(=O)[C@H](NC(=O)[C@H](NC(=O)[C@H](CCCN)NC(=O)[C@H]2CCCN2C(=O)[C@H](NC(=O)[C@@H](NC(=O)[C@@H](NC(=O)[C@H](NC(=O)Cc2ccc(C(F)(F)F)cc2)C(C)C)[C@@H](C)O)C(C)C)C(C)C)[C@@H](C)CC)[C@@H](C)OC(=O)[C@H](C(C)C)NC1=O [Compound 25, [p-CF3PhAc^14]-KF] . YES

State whether 400 nM exceeds GI50 recorded for C/C=C1\NC(=O)[C@H](Cc2ccccc2)NC(=O)[C@@H](C(C)C)NC(=O)[C@@H]([C@@H](C)CC)NC(=O)[C@H](NC(=O)[C@H](NC(=O)[C@H](CCCN)NC(=O)[C@H]2CCCN2C(=O)[C@H](NC(=O)[C@@H](NC(=O)[C@@H](NC(=O)[C@H](NC(=O)c2ccc(C)cc2)C(C)C)[C@@H](C)O)C(C)C)C(C)C)[C@@H](C)CC)[C@@H](C)OC(=O)[C@H](C(C)C)NC1=O [Compound 19, [p-MeBza^14]-KF] . NO

State whether 400 nM exceeds GI50 recorded for C/C=C1\NC(=O)[C@H](Cc2ccccc2)NC(=O)[C@@H](C(C)C)NC(=O)[C@@H]([C@@H](C)CC)NC(=O)[C@H](NC(=O)[C@H](NC(=O)[C@H](CCCN)NC(=O)[C@H]2CCCN2C(=O)[C@H](NC(=O)[C@@H](NC(=O)[C@@H](NC(=O)[C@@H](Cc2ccccc2)NC(=O)CCCC(C)C)[C@@H](C)O)C(C)C)C(C)C)[C@@H](C)CC)[C@@H](C)OC(=O)[C@H](C(C)C)NC1=O [Compound 36, [D-Phe^13]-KF] . NO

* * *

Test system: PANC-1
Assay: SRB colorimetric assay of cell growth and viability, PANC-1
Assay type: cell-based, human
Settings: 48 hours exposure, SRB
Where a SMILES comes first, the peptide text is derived from it. Bridges are numbered along the chain shown (N, C = ends). [ ]: non-standard residue; d: D form. The star is where a group is joined. d(aIle) = CC[C@H](C)[C@@H](N)C(=O)O; d(aThr) = C[C@@H](O)[C@@H](N)C(=O)O; Hexanoyl(5-Me) = CC(C)CCCC(=O)*; Orn = NCCC[C@H](N)C(=O)O; Dha = C=C(N)C(=O)O
Each item that follows carries a reported TGI PANC-1.
Respond with the bare value in Molar.

compound	TGI PANC-1, Molar
C/C=C1\NC(=O)[C@H](Cc2ccccc2)NC(=O)[C@@H](C(C)C)NC(=O)[C@@H]([C@@H](C)CC)NC(=O)[C@H](NC(=O)[C@H](NC(=O)[C@H](CCCN)NC(=O)[C@H]2CCCN2C(=O)[C@H](NC(=O)[C@@H](NC(=O)[C@@H](NC(=O)[C@H](NC(=O)CC[C@@H](C)[C@H]2CC[C@H]3[C@@H]4CC[C@@H]5C[C@H](OC(=O)C(F)(F)F)CC[C@]5(C)[C@H]4CC[C@]23C)C(C)C)[C@@H](C)OC(=O)C(F)(F)F)C(C)C)C(C)C)[C@@H](C)CC)[C@@H](C)OC(=O)[C@H](C(C)C)NC1=O	5.22E−06

TGI PANC-1 for C/C=C1\NC(=O)[C@H](Cc2ccc([N+](=O)[O-])cc2)NC(=O)[C@@H](C(C)C)NC(=O)[C@@H]([C@@H](C)CC)NC(=O)[C@H](NC(=O)[C@H](NC(=O)[C@H](CCCN)NC(=O)[C@H]2CCCN2C(=O)[C@H](NC(=O)[C@@H](NC(=O)[C@@H](NC(=O)[C@H](NC(=O)CC[C@@H](C)CC)C(C)C)[C@@H](C)O)C(C)C)C(C)C)[C@@H](C)CC)[C@@H](C)OC(=O)[C@H](C(C)C)NC1=O [Compound 73, [Phe(4-NO2)^3, (4S)-MeHex^14]-KF] ? 1.85E−06

TGI PANC-1 for C=C1NC(=O)[C@H](Cc2ccccc2)NC(=O)[C@@H](C(C)C)NC(=O)[C@@H]([C@@H](C)CC)NC(=O)[C@H](NC(=O)[C@H](NC(=O)[C@H](CCCN)NC(=O)[C@H]2CCCN2C(=O)[C@H](NC(=O)[C@@H](NC(=O)[C@@H](NC(=O)[C@H](NC(=O)CCCC(C)C)C(C)C)[C@@H](C)O)C(C)C)C(C)C)[C@@H](C)CC)[C@@H](C)OC(=O)[C@H](C(C)C)NC1=O [Compound 67, [Dha^2]-KF] ({Hexanoyl(5-Me)}-[dV]TV[dV][dP][Orn][d(aIle)][d(aThr)][d(aIle)][dV]F[Dha]V; ester 8-C) ? 6.83E−06

TGI PANC-1 for C/C=C1\NC(=O)[C@H](Cc2ccccc2)NC(=O)[C@@H](C(C)C)NC(=O)[C@@H]([C@@H](C)CC)NC(=O)[C@H](NC(=O)[C@H](NC(=O)[C@H](CCCN)NC(=O)[C@H]2CCCN2C(=O)[C@H](NC(=O)[C@@H](NC(=O)[C@@H](NC(=O)[C@H](NC(=O)CC[C@@H](C)CC)C(C)C)[C@@H](C)OC(=O)C(F)(F)F)C(C)C)C(C)C)[C@@H](C)CC)[C@@H](C)OC(=O)[C@H](C(C)C)NC1=O ? 6.35E−06

TGI PANC-1 for C/C=C1\NC(=O)[C@H](Cc2ccc(I)cc2)NC(=O)[C@@H](C(C)C)NC(=O)[C@@H]([C@@H](C)CC)NC(=O)[C@H](NC(=O)[C@H](NC(=O)[C@H](CCCN)NC(=O)[C@H]2CCCN2C(=O)[C@H](NC(=O)[C@@H](NC(=O)[C@@H](NC(=O)[C@H](NC(=O)CC[C@@H](C)CC)C(C)C)[C@@H](C)O)C(C)C)C(C)C)[C@@H](C)CC)[C@@H](C)OC(=O)[C@H](C(C)C)NC1=O [Compound 72, [Phe(4-I)^3, (4S)-MeHex^14]-KF] ? 1.68E−06
